target or system: P. aeruginosa TyrRS-Z (Pseudomonas aeruginosa, UniProt Q9I5Q3)
Sequence (Q9I5Q3 whole entry): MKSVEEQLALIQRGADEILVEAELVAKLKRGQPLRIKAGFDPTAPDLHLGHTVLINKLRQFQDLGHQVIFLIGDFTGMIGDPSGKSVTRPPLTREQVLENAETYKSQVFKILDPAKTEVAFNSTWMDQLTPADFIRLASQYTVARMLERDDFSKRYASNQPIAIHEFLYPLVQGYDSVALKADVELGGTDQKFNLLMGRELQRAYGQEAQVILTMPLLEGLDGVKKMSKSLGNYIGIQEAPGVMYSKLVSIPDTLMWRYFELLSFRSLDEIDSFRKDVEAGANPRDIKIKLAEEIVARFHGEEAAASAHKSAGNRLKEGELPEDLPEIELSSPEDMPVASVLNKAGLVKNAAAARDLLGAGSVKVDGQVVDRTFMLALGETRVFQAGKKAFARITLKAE
procedure text: SPA-based tRNA aminoacylation assay
endpoint: IC50
Param answer (str): number followed by unit.

QUERY: // returns reported IC50 for input CC(=O)N1CCc2cc(Br)c(S(=O)(=O)NCCN3CCCCC3C)cc21 (stereo not shown)
RESULT: 241 µM

----------
target or system: P. aeruginosa TyrRS-S (Pseudomonas aeruginosa)
Sequence (Q9HWP3 whole entry): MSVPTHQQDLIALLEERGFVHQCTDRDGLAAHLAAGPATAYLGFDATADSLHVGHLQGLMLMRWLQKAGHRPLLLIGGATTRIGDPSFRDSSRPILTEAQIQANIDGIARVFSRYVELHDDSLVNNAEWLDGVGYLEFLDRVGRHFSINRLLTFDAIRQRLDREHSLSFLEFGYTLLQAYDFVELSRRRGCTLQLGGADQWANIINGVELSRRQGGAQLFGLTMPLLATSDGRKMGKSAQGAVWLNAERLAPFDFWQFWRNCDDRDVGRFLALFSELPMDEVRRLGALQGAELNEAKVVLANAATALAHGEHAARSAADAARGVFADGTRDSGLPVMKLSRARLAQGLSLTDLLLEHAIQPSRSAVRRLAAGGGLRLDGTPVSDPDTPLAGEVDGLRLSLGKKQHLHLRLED
procedure text: SPA-based tRNA aminoacylation assay
Kindly state pIC50 for each of the entries shown.
Numbers only, as −log10 of the molar value.

Reference set (2 entries):
CC(=O)N1CCc2cc(Br)c(S(=O)(=O)NCCN3CCCCC3C)cc21 (stereo not drawn); 4.15
O=C(c1ccccc1)N1CCCn2cc(-c3ccc4c(c3)OCO4)nc21; 4.30

Attention now turns to another entry.
QUERY: What value of measured pIC50 is listed for O=C1Nc2ccccc2Oc2cc(N3CCc4ccccc4C3)c(S(=O)(=O)N3CCCCC3)cc21 ?
RESULT: 4.62
